System: PPARg homodimer (NR concentration 180 nM)
Protocol Details: PBM binding z-score (relative to random genomic background probes); higher = stronger binding; sequences stand for … in GC…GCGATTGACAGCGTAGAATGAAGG
Quick rule for you: PBM binding z-score at 0.8 or higher means 1.0, lower means 0.0.

CGAACTAGGTCATTGTCAGGACAGTGAATAGTAA: 1.0
AGAACAAGGGCAATGAGTTGATAGCACGGGTGGC: 0.0
CGTTCAAGGTCAATGCTAGGTCAGTGAAAGCATT: 1.0
TCGAGTAGGTTACCCATGGGGCATTCAGCTTTCT: 0.0
TCGGGTAGGTTAGTCGGGGCATTCAGCCAACATA: 0.0
CCGAGTAGGTTATGGGGCATTCATGCAACGGTGA: 1.0

---

System: RARb:RXRa (NR concentration 270 nM, RXRa partner concentration 90 nM)
Protocol Details: PBM binding z-score (relative to random genomic background probes); higher = stronger binding; sequences stand for … in GC…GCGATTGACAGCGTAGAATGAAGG
Property Label: PBM binding z-score

CCCGAAAGGTCGTGCTCAGGTGAGTATACCAAAC: 4.01
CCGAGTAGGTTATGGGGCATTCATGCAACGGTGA: 0.981
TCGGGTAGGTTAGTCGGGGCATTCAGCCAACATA: 1.21
TCATATTGGTAAATGCTAGGTGAAAGTCCGATCT: 0.404
TCTATTAGTTGATTAAGGCAACCGAAACAGCGGA: 0.0773
GCTCGGAGGACACGGTCAGAGCTTTGTCCGTAGA: 2.09
CGAACTAGGTCATTTACAGGACAGTGAATAGTAA: 3.39
TCCTATAGGTAATACAGGTGAAAGTCGGCATCTA: 0.581
TCTTGTAGATAAACAGGAGGTTAAGAAAGATCGA: 0.359
TTACCTAGGTGAAAGGTCGTTGATGCACGCCTTG: 2.38
CCTAGCAGGCCAGGGTCACTAAAGCATTTCGCTT: 2.35
GCTGCTAGGTCAACTGATGGTCAGCTACAGCTCG: 4.15
AATTACGGGTCAACGAGGTTATAGCACGCGTATA: 4.27
TCTTGTAGATCAAAGATTAAGAAAGCCGAAGCCT: -0.16
CAAACTAGGTTACGAAAGGTCAAAGTCGAATGAC: 4.82
ATCTCTACGTAACCAAGTTCAGTGAATGCCGAAC: 0.836
AGAATGAGGTTACCAAAGATCAGGGACACGCTTG: 2.14
TCTTGTAGATCAAGAAGGTTAAGAAAGCCTGAGT: 0.732
TAGAGTAGGTTAGTCGGGGCATTCAGCCAACATA: 1.1
TCGAGTAGGTTACCAATGGGGCACTCAGCTTTCT: 0.948
TATACAGGGTCAAAGGCCAGAGGACGAATGTCGA: 4.43
CCTGCTAGGTCAATGGTCAACTAAAGCAGCTCGC: 3.79
AGAATGAGGTTATTAAGAGCAGGGAATTGCGGTC: 1.47
CCTTACGGGTCACGAGGTTATAGCACGACGAGCG: 4.62
CCTAGCAGGCCAGGCTCACTCAAGCATTTCGCTT: -0.239
TCATATAGGTAAACATGTGAAAGTCCGTAAGTTA: 0.412
CAAACTAGGTCAAAGGTCAAAGTGGAGCCAACCA: 5.8
ACTATTAGTTGAGACGAGGGCAACCGATAGGTTG: 1.24
TCGAGTAGGTTATGGGCATTCAGAATGGCGTCGA: 0.453
TCATATAGGTAACAGGTGAAAGTCGGTGTGGTAA: 1
ATCTCTAGGTAACCAAGTCCAGTGAATGCCGAAC: 0.379
CCTACTCGGCCATTCAGAGGTCATTGATCATATG: 3.27
TCATATATGTAATACAGGTGAAAGTCGGCATCTA: 0.42
CCTAGCAGGCCAATCTGCGTCACTCAAGGCTTGA: 0.0378
TAGCCTAGGTCAATGGGCCAGTATAGTACGCATC: 3.67
ATGGAAAGGTCGAGGTGAGTATAGAGAAAGGGAA: 4.07
GATACAGGGTCAGCTAGAGCCCAGAGTATGGAAA: 3.81
TCTAGCAAGCCAGAGGGTCACTCAAGAGGTACGG: 1.62
CGAACTAGGTCAAGGACAGTGCATCTCCGCACGC: 3.97
CCTACTGGGCCAATGGTCATTGATTCCAATGCTC: 0.311
CCAGACAGGTGAGAAGGTAACGCAGCCTCGATTA: 0.806
CGTAGCAGGCCAATCTGGGTCACTCAAGGCTTGA: 1.48
TCTAGCAGGCCAGAGGATCACTCAAGAGGTACGG: -0.18
CAGCCTAGGTAAGGGCCAGTATAGGAGGAACGTT: -0.0366
ATCTCTAGGTAAAGTTCAGTGAAAGATCGATAGA: 2.86
CGTCAAAGTTCAAGTAAGGTAACGTAAAGCACGC: 5.29
TAGGCTAGGTCATTCAGGGGCCAGTATAGAAAGC: 4.12
TCATATAGGTAATCCAGGTGAAAGTCGGCATCTA: 0.724
CCTTACGGGTCACGAGGTTATAGAACGACGAGCG: 4.73
TGAATGAGGTTATAAGATCAGGGCACGTTGCAAA: 1.48
TTACCAAGGTGAAAGGTCGATGATGCACGCCTTG: 2.98
